- system-name: NSD2 [1-1365] (Homo sapiens (Human))
- Sequence (O96028 whole entry): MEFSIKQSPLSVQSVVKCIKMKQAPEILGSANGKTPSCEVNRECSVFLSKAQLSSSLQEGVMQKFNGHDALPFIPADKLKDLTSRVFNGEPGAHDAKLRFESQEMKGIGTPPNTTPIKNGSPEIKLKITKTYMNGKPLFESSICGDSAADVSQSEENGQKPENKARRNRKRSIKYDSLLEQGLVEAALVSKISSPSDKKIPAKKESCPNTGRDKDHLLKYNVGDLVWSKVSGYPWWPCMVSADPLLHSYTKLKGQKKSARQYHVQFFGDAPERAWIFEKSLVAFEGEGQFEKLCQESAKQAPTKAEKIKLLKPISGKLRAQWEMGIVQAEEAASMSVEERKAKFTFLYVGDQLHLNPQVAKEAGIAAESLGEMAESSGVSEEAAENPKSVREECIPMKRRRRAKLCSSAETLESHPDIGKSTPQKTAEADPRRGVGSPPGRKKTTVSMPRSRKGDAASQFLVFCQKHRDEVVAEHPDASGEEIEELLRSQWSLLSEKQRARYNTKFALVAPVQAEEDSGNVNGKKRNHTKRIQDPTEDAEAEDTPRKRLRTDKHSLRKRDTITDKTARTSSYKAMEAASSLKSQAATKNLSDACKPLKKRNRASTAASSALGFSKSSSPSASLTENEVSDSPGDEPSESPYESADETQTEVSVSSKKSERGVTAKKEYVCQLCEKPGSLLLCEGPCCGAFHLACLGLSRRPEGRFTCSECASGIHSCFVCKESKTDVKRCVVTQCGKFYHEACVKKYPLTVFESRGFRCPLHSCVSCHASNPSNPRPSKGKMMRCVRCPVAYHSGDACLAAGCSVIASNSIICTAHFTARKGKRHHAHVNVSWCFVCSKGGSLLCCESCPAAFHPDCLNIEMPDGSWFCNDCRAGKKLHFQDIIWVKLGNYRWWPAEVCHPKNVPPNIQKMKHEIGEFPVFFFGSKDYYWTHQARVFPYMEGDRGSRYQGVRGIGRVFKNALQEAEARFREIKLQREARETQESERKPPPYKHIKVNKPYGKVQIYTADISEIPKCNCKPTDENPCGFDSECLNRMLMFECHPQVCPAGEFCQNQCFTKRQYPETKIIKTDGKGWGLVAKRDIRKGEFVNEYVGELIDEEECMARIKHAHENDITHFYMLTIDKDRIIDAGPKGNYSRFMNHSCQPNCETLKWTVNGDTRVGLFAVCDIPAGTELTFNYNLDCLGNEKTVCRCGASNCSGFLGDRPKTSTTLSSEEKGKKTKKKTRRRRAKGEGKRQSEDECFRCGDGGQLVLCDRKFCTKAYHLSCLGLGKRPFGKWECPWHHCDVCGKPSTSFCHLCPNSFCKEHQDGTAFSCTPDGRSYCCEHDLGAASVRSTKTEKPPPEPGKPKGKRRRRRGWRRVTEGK
- assay-method-text: LC-MS/MS-based NSD2 enzymatic assay (SAH production)
- Format: biochemical
- assay-setup: NSD2 biochemical activity, class symbols; read-out: NSD2 IC50
Can you tell me IC50 for the items I'm about to list?

For Nc1ncnc2c1ncn2Cc1cc(-c2ccc(F)c(F)c2)ncc1N1CCC[C@](N)(COC2CC2)C1 [Example 22] , what is its reported IC50?
1 to 10 nM

Consider the compound shown here: CN(C)C(=O)CC1(N)CCCN(c2cnc(-c3ccc(F)c(F)c3)cc2Cn2cnc3c(N)ncc(Cl)c32)C1 (centres unmarked) [Example 68, 2-(3-amino-1-(4-((4-amino-7-] What is its recorded IC50?
10 to 1000 nM

What does the record list as IC50 for CCO[C@H](C)C1(N)CCCN(c2cnc(-c3ccc(F)c(F)c3)cc2Cn2cnc3c(N)ncnc32)C1 (some centres unmarked) [Example 99] ?
10 to 1000 nM

Requested read-out: IC50. Entry: Nc1ncnc2c1ncn2Cc1cc(-c2ccc(C(F)F)cc2F)ncc1N1CCC[C@](N)([C@H](O)C(F)F)C1 [Example 137]
10 to 1000 nM

Using the record for Nc1ncnc2c1ncn2Cc1cc(-c2ccc(Cl)cc2F)ncc1N1CCC[C@](N)([C@H](O)C(F)F)C1 [Example 148] , report its IC50.
10 to 1000 nM

Would you mind telling me what IC50 value was observed for Nc1ncnc2c1ncn2Cc1cc(-c2cccc(F)c2)ncc1N1CCC[C@@H](N)C1 [Example 4] ?
10 to 1000 nM

// lookup IC50 for Nc1ncnc2c1ncn2Cc1cc(-c2ccc(F)c(F)c2)ncc1N1CCCC(N)(Cc2cccc(F)n2)C1 (centres unmarked) [Example 69]
10 to 1000 nM

Query: IC50; subject: COc1c(-c2ccc(F)c(F)c2)ncc(N2CCC[C@](N)([C@H](O)C(F)F)C2)c1Cn1cnc2c(N)ncnc21 [Example 118]
1 to 10 nM

Any idea what its IC50 is? The compound is COc1ccc(-c2cc(Cn3cnc4c(N)ncnc43)c(N3CCC[C@](N)(C(O)C(F)F)C3)cn2)c(C(F)(F)F)c1 (stereo in doubt) [Example 166]
1 to 10 nM

Entry under review: COc1ccc(-c2cc(Cn3cnc4c(N)ncnc43)c(N3CCC[C@@H](N)C3)cn2)c(F)c1 [Example 6] . Reported IC50?
10 to 1000 nM

Given Cc1cc(F)c(F)cc1-c1cc(Cn2cnc3c(N)ncnc32)c(N2CCC[C@](N)([C@@H](O)C(F)F)C2)cn1 [Example 117] , state its recorded IC50.
1 to 10 nM

What value of IC50 has been recorded for this entry: COc1cc(F)c(-c2cc(Cn3cnc4c(N)ncnc43)c(N3CCC[C@](N)([C@H](O)C(F)F)C3)cn2)cc1F [Example 161]
1 to 10 nM

Would you mind telling me what IC50 value was observed for CC[C@H](C)C(=O)[C@@]1(N)CCCN(c2cnc(-c3ccc(F)c(F)c3)cc2Cn2cnc3c(N)ncnc32)C1 [Example 101] ?
1 to 10 nM

IC50 for COc1ccc(-c2cc(Cn3cnc4c(N)ncnc43)c(N3CCC[C@](N)(COC(F)F)C3)cn2)cc1F [Example 42] ?
10 to 1000 nM
